Test system: Mycobacterium tuberculosis
Experiment: Antitubercular activity against Mycobacterium tuberculosis H37Rv ATCC 27294 by microplate alamar blue assay
Type: functional
MEASURED_ATTRIBUTE: MIC (µg/mL)

- Cc1c(C(=O)N/N=C/c2ccco2)nnn1Nc1ccc(F)cc1: 12.5
- CC(C)CCOc1ccc(NC(=S)Nc2ccc(OCCC(C)C)cc2)cc1 [TIOCARLIDE]: 2.5
- Cc1c(C(=O)N/N=C/c2ccc([N+](=O)[O-])o2)nnn1Nc1ccc(Cl)cc1: 5
- CC[C@@H](CO)NCCN[C@@H](CC)CO: 2
- Cc1c(C(=O)N/N=C/c2ccc([N+](=O)[O-])o2)nnn1Nc1ccccc1: 2.5
- Cc1c(C(=O)N/N=C/c2ccc([N+](=O)[O-])o2)nnn1Nc1ccc(Br)cc1: 6.25
- Cc1c(C(=O)N/N=C/c2ccc(Br)s2)nnn1Nc1ccccc1: 12.5
- Cc1c(C(=O)N/N=C/c2ccco2)nnn1Nc1ccc(Br)cc1: 25.5
- Cc1c(C(=O)N/N=C/c2ccco2)nnn1Nc1ccccc1: 5
- Cc1c(C(=O)N/N=C/c2ccco2)nnn1Nc1ccc(Cl)cc1: 12.5
- Cc1c(C(=O)N/N=C/c2ccc([N+](=O)[O-])o2)nnn1Nc1ccc(F)cc1: 5
